# Protocol description: growth inhibition, single agents and combos, HTB85, cell-based, BGB or cisplatin IC20 combos, synergistic combos for chromothripsis tumors (AID 1671453);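 also: cells exposed for 96 hours before readout; 0% = vehicle DMSO and 100% = high DMSO killing control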
# Run parameters: HTB85 osteosarcoma cells, drug combinations, at 0.5 µM, hits give high values
Endpoint label: inhibition (%)
// note: answer is a bare numeric in %

>  <Molecule>
CS(=O)(=O)c1ccc(-c2nnc(/C=C/c3nnc(-c4ccc(C#N)cc4)o3)n2-c2ccccc2Cl)nc1

>  <inhibition / %>
15.7

$$$$
>  <Molecule>
C[C@]12CCCN1CC1=NNC(=O)c3cc(F)cc4[nH]c2c1c34

>  <inhibition / %>
2.64

$$$$
>  <Molecule>
NC(=O)c1nc(F)c[nH]c1=O

>  <inhibition / %>
1.18

$$$$
>  <Molecule>
Nc1nc2n[nH]nc2c(=O)[nH]1

>  <inhibition / %>
-22.9

$$$$
>  <Molecule>
N=C1CCCN1Cc1[nH]c(=O)[nH]c(=O)c1Cl

>  <inhibition / %>
8.24

$$$$
>  <Molecule>
COc1ccc(C(=O)C2CCN(CC(=O)N(Cc3nc4c(c(=O)[nH]3)COCC4)CC3CC3)CC2)cc1

>  <inhibition / %>
14.2

$$$$
>  <Molecule>
COc1ccc(-n2c(SCCCN3C(=O)c4cccc5cccc(c45)C3=O)nnc2-c2ccncc2)cc1

>  <inhibition / %>
-0.55

$$$$
>  <Molecule>
NC1CCC(N[C@@H]2C[C@H]2c2ccccc2)CC1 (some centres not stated)

>  <inhibition / %>
0.26

$$$$
>  <Molecule>
CN(C)Cc1c(C(=O)NCCOc2ccc(C(=O)NO)cc2)oc2ccccc12

>  <inhibition / %>
87.5

$$$$
>  <Molecule>
COc1ccc(C(=O)CC2(O)C(=O)Nc3c(Cl)ccc(Cl)c32)cc1 (configuration not stated)

>  <inhibition / %>
33.2

$$$$

Form: molecule = Nc1ccccc1NC(=O)c1ccc(CNc2nccc(-c3cccnc3)n2)cc1 ; inhibition = 18.4

Form: molecule = O=c1cc(N2CCOCC2)oc2c(-c3cccc4c3sc3ccccc34)cccc12 ; inhibition = -12.3

----------
# Protocol description: drug combination growth inhibition, ovarian cancer – cell-based, oncology-focused library, rucaparib conditional, profiling panel (AID 1508598)
# Run parameters: patient-derived ovarian cancer cells, CellTiter-Glo viability, 144 h; at 0.0781 µM; OCI-P5x cells; with rucaparib 20 µM; hits give low values; 100% = cells with rucaparib alone
Endpoint label: viability (%)
// note: answer is a bare numeric in %

>  <Molecule>
COc1ccc(-c2ccc3c(N4CCOCC4)nc(N4C[C@@H](C)O[C@@H](C)C4)nc3n2)cc1CO

>  <viability [%]>
100

$$$$
>  <Molecule>
CCOc1ccn(-c2ccc(F)cc2)c(=O)c1C(=O)Nc1ccc(Oc2ccnc(N)c2Cl)c(F)c1

>  <viability [%]>
107

$$$$
>  <Molecule>
CC(C)Oc1ccc(C(=O)N[C@H](CNC(=O)CN(C)C)Cc2ccc(-c3cn4cccc([C@H](C)O)c4n3)cc2)cc1Cl

>  <viability [%]>
66.4

$$$$
>  <Molecule>
Cc1c(NC(=O)OC[C@@H]2COCCN2)cn2ncnc(Nc3ccc4c(cnn4Cc4cccc(F)c4)c3)c12

>  <viability [%]>
111

$$$$
>  <Molecule>
O=C(O)c1ccc(O)c2ncccc12

>  <viability [%]>
98.2

$$$$

Form: molecule = Nc1ccc(-c2ccc3ncc4ccc(=O)n(-c5cccc(C(F)(F)F)c5)c4c3c2)cn1 ; viability = 77.9

Form: molecule = CN1CCCN(C(=O)c2cccc(-c3ccc(/C=C4/C(=O)Nc5ccc(Cl)cc54)o3)c2)CC1 ; viability = 109

Form: molecule = C#CC[C@H](c1nc2cc(Cl)ccc2c(=O)n1Nc1ccccc1)N(CCCN)C(=O)c1cccc(Cl)c1F ; viability = 91.9

Form: molecule = O=C(Nc1cccc(Cl)c1)Nc1ncc(CCNc2ncnc3ccsc23)s1 ; viability = 99.1

Form: molecule = CCN1CCN(Cc2ccc(-c3cc4c(N[C@H](C)c5ccccc5)ncnc4[nH]3)cc2)CC1 ; viability = 102

Form: molecule = CC(=O)c1c(C)c2cnc(Nc3ccc(N4CCNCC4)cn3)nc2n(C2CCCC2)c1=O ; viability = 96.9

Form: molecule = Cc1cccc(-c2nn3c(c2-c2ccnc4ccc(C(N)=O)cc24)CCC3)n1 ; viability = 110

Form: molecule = Cc1cnc(NC(=O)Nc2cc(Br)c(C)cc2OC[C@@H]2CNCCO2)cn1 ; viability = 92.1

Form: molecule = Cc1cccc(-c2[nH]c(C(C)(C)C)nc2-c2ccc3nccnc3c2)n1 ; viability = 101

Form: molecule = CC(C)C[C@H](NC(=O)CNC(=O)c1cc(Cl)ccc1Cl)B1OC(=O)CC(CC(=O)O)(C(=O)O)O1 (stereo not given in full) ; viability = 103

Form: molecule = NC(=O)c1ccc(I)c([N+](=O)[O-])c1 ; viability = 97.2

Form: molecule = Cn1cc(-c2ccc3nnc(C(F)(F)c4ccc5ncccc5c4)n3n2)cn1 ; viability = 104

Form: molecule = C/C(=C\C(=O)Nc1ccccc1C(=O)O)c1ccc2ccccc2c1 ; viability = 109

Form: molecule = Nc1nccc(Oc2ccc(NC(=O)c3c[nH]cc(-c4ccc(F)cc4)c3=O)cc2F)c1Cl ; viability = 106

Form: molecule = O=C(NC1CCNCC1)c1[nH]ncc1NC(=O)c1c(Cl)cccc1Cl ; viability = 93.7

----------
# Protocol description: viability loss in pontine glioma line – cell-based, SU-DIPG-XXV, MIPE5.0, CellTiter-Glo, qHTS, dose response (AID 1347065);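 also: cells exposed to compound for 48 hours before ATP readout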
# Run parameters: CellTiter-Glo ATP luminescence
Inconclusive results are not listed. Calls of active or inactive are those of the source. Cut-off not given; nearly all actives show AC50 up to about 26 µM.
A correct response names exactly one class from True for active, False for inactive

A selection of reference data follows.
>  <Compound>
N#CC1(c2cccc(C(=O)Nc3cc(Oc4ccc5nc(NC(=O)C6CC6)sc5n4)ccc3F)c2Cl)CC1

>  <Discrete label>
True

$$$$
>  <Compound>
CN[C@H]1CCc2cc(OC)c(OC)c(OC)c2-c2ccc(OC)c(=O)cc21

>  <Discrete label>
True

$$$$
>  <Compound>
O=C(NC1CCNCC1)c1[nH]ncc1NC(=O)c1c(Cl)cccc1Cl

>  <Discrete label>
True

$$$$
>  <Compound>
CC[C@H]1OC(=O)[C@H](C)C(=O)[C@H](C)[C@@H](O[C@H]2O[C@H](C)C[C@H](N(C)C)[C@H]2O)[C@](C)(OC)C[C@@H](C)C(=O)[C@H](C)[C@H]2N(CCCCn3cnc(-c4cccnc4)c3)C(=O)O[C@]12C

>  <Discrete label>
False

$$$$
>  <Compound>
C[C@H]1[C@H](C)CC[C@]2(C(=O)O)CC[C@]3(C)C(=CC[C@@H]4[C@@]5(C)C[C@@H](O)[C@H](O)[C@@](C)(CO)[C@@H]5CC[C@]43C)[C@H]12

>  <Discrete label>
False

$$$$

Fill in: this test's call for Oc1ccc(C2=Cc3ccc(O)cc3OC2)cc1 is ___
False

Fill in: this test's call for O=C(NCC(=O)N1CCCC1)Nc1ccc2cnccc2c1 is ___
False

Fill in: this test's call for c1cc(CN2CCCNCCNCCCNCC2)ccc1CN1CCCNCCNCCCNCC1 is ___
False

----------
# Protocol description: viability loss in pontine glioma line – cell-based, SU-DIPG-XIII, MIPE4.0, CellTiter-Glo, qHTS, dose response (AID 1347061);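 also: cells exposed to compound for 48 hours before readout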
# Run parameters: CellTiter-Glo ATP luminescence
Inconclusive results are not listed. Calls of active or inactive are those of the source. No cut-off is given here; in the data, nearly all actives have AC50 up to about 37 µM.
A correct response names exactly one class from active, inactive

A selection of reference data follows.
>  <Molecule>
COCCn1c2c([n+](Cc3cnccn3)c1C)C(=O)c1ccccc1C2=O

>  <Discrete label>
active

$$$$
>  <Molecule>
C[N+](C)([O-])CCNc1ccc(NCC[N+](C)(C)[O-])c2c1C(=O)c1c(O)ccc(O)c1C2=O

>  <Discrete label>
inactive

$$$$
>  <Molecule>
O=C(NCc1ccccc1)c1csc(Nc2ccncn2)n1

>  <Discrete label>
active

$$$$
>  <Molecule>
COc1cc2nc(-c3ccc(N4CCN(C)CC4)cc3)nc(NCCN3CCOCC3)c2cc1OC

>  <Discrete label>
active

$$$$

Fill in: this test's call for O=C(/C=C/c1ccc(CN(CCO)CCc2c[nH]c3ccccc23)cc1)NO is ___
active

Fill in: this test's call for COc1ccc(C2(C#N)CCC(C(=O)O)CC2)cc1OC1CCCC1 (centres undefined) is ___
inactive

----------
# Protocol description: drug combination growth inhibition, ovarian cancer – cell-based, oncology-focused library, rucaparib conditional, profiling panel (AID 1508598)
# Run parameters: patient-derived ovarian cancer cells, CellTiter-Glo viability, 144 h; at 5 µM; OCI-P5x cells; without rucaparib; hits give low values
Endpoint label: viability (%)
// note: answer is a bare numeric in %

Record excerpt, results attached:
>  <Compound>
C=CC(=O)Nc1cc(Nc2nccc(-c3cn(C)c4ccccc34)n2)c(OC)cc1N(C)CCN(C)C

>  <Units of measure>
%

>  <Value observed>
78.5

$$$$
>  <Compound>
Cc1cc(CS(=O)(=O)c2ccccc2)cc(OCc2ccc(CN3CCC[C@@H]3CO)cc2)c1

>  <Units of measure>
%

>  <Value observed>
99.8

$$$$
>  <Compound>
CS(=O)(=O)N1CCN(Cc2cc3nc(-c4cccc5[nH]ncc45)nc(N4CCOCC4)c3s2)CC1

>  <Units of measure>
%

>  <Value observed>
70.8

$$$$
>  <Compound>
S=C(NCc1ccc2c(c1)OCO2)N1CCN(c2ncnc3c2oc2ccccc23)CC1

>  <Units of measure>
%

>  <Value observed>
101

$$$$
>  <Compound>
Cc1ccc([C@@H]2O[C@H](CO)[C@@H](O)[C@H](O)[C@H]2O)cc1Cc1ccc(-c2ccc(F)cc2)s1

>  <Units of measure>
%

>  <Value observed>
115

$$$$

Form: compound = Cn1cc(-c2ccc3c(c2)CCN3C(=O)Cc2cccc(C(F)(F)F)c2)c2c(N)ncnc21 ; viability = 69.3

Form: compound = Cc1csc(-c2nnc(Nc3ccc(Oc4ncccc4-c4ccnc(N)n4)cc3)c3ccccc23)c1 ; viability = 54.4

Form: compound = CC(C)c1ccccc1Cc1cc(C(=O)Nc2ccc(S(=O)(=O)c3ccccc3C(C)(C)C)cc2)c(O)c(O)c1O ; viability = 21.5

Form: compound = COC(=O)Nc1ccc(-c2nc(N3CCOCC3)c3cnn(C4CCN(C(=O)OC)CC4)c3n2)cc1 ; viability = 99.3

Form: compound = C#Cc1cccc(Nc2ncnc3cc(OC)c(OCCCCCCC(=O)NO)cc23)c1 ; viability = 1.21

Form: compound = CN(C)N=Nc1nc[nH]c1C(N)=O ; viability = 113
